- Tested on: Escherichia coli TK-3113 strain producing IMP-8 (strain D)
- measurementProtocol: MIC of test compound alone or with β-lactamase inhibitor at 4 μg/mL
- Type: cell-based
- testConditions: test compound alone (β-lactamase inhibitor N/A)
A collection of compounds and their measured MIC
# number then unit; no other words

Look over these answered cases.
[Q] Provide MIC, recorded with Escherichia coli TK-3113 strain producing IMP-8 (strain D), of "Nc1nc(/C(=N/OC2(C(=O)O)CC2)C(=O)N[C@@H]2C(=O)N3C[C@@](C(=O)O)(N4CCN(NC(=O)C(=O)c5ccc(O)c(O)c5Cl)C4=O)S[C@H]23)cs1"
[A] 0.25 µg/mL

[Q] Provide MIC, recorded with Escherichia coli TK-3113 strain producing IMP-8 (strain D), of "CC(C)(O/N=C(\C(=O)N[C@@H]1C(=O)N2C[C@@](C(=O)O)(N3CCN(NC(=O)C(=O)c4ccc(O)c(O)c4Cl)C3=O)S[C@H]12)c1csc(N)n1)C(=O)O"
[A] 0.5 µg/mL

[Q] Provide MIC, recorded with Escherichia coli TK-3113 strain producing IMP-8 (strain D), of "CC(C)(O/N=C(\C(=O)N[C@@H]1C(=O)N2C[C@@](C(=O)O)(N3CCN(NC(=O)C(=O)c4ccc(O)c(O)c4Cl)C3=O)S[C@H]12)c1nc(N)sc1Cl)C(=O)O"
[A] 1 µg/mL

Note: attention shifts to another entry.
[Q] Provide MIC, recorded with Escherichia coli TK-3113 strain producing IMP-8 (strain D), of "Nc1nc(/C(=N/OC2(C(=O)O)CCC2)C(=O)N[C@@H]2C(=O)N3C[C@@](C(=O)O)(N4CCN(NC(=O)C(=O)c5ccc(O)c(O)c5Cl)C4=O)S[C@H]23)cs1"
[A] 0.5 µg/mL
